Where do these numbers come from? They come from the RNAGym collection of RNA variant scans (doi:10.1073/pnas.2313332121).

B1: TPR t1 (parent)
chain: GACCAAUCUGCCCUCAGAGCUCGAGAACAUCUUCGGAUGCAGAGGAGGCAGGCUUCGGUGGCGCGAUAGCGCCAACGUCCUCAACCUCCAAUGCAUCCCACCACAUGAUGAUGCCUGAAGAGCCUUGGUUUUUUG

Variants of: B1
Assay: polymerase ribozyme fitness, log enrichment relative to wild type (log ratio); higher = more active; in vitro selection for triplet polymerase activity
MEASURED ATTRIBUTE: polymerase ribozyme fitness (log ratio)
Please give the numeric answer without any surrounding text.

SEQUENCE	polymerase ribozyme fitness (log ratio)
GACCAAUCUGCCCUCAGAGCUCGAGAACAUCUUCGGAUGGAGAGGAGGCAGGCUUUGGUGGCGCGAUAGCGCCAACAUCCUCAACCUCCAAUGCAUCCCACCACAUGAUGAUGCCUGAAGAGCCUUGGUUUUUUG [C40G C56U G77A]	-0.862
GACCAAUCUGCCCUCAGAGCGCGAGAACAUCUUCGGAUGCAGAGGAGGCAGGCUUCGGUGGAGCGAUAGCGCCAACGUCCUCAACCUCCAAUGCAUCCCACCACAUGAUGAUGCCUGAAGAGCAUUGGUUAUUUG [U21G C62A C124A U131A]	-1.77
GACCAAUCUGUCCUCAGAGCUCGAGAUCAUCUUCGGAUGCAGAGGAGGCAGGCUUCGGUGGCGCGAUAGCGCCAACGUCCUCAACCUCCAAUGCAUCCCACCACAUGAUGAUGCCUGAAAAGCCUUGGUUUAUUG [C11U A27U G120A U132A]	-1.47

# lookup: polymerase ribozyme fitness (log ratio) of GACCAAUCUGGCCUCAGAGCUCGAGAACAUCUUCGGAUGCAGAGGAGGCAGGCUUCGGUGGCGCGAUAGCGCCAACGUCCUCAACCUCCAAUGCAUCCCACCACAUGAUGAUGCCUAAAGAGCCUUGGUUUUUUG [C11G G117A]
-0.219

Repeat for the following variant: GACCAAUCUGCCCUCAGAGCUCGAGAACAUCUUCGUAUGCAGAGGAGGCACGCUUCGGUGGCGCGAUAUCGCCAACGUCCUCAACCUCCAAUGCAUCCCACCACAUGAUGAUGCUUGAAGAGCCUUGGUUUUUUG [G36U G51C G69U C115U]
-3.32

And then GACCAAUCUGCCCUCAGAGCUCGAGAACAUCUUCGGAUGCAGAGGAGGCAGGCUUUGGUGGCGCGAUAGCGCCAACGUCCUCAACCUCCAAUCCAUCCCACCACAUGAUGAUGCCUGAAGAGCCUUGGUUUUUUG [C56U G93C] , what is it?
-0.768

Next record, please: GACCAAUCUGCCCUCAGAGCUCGAGAACAUCUUCGGAUGCAGAGGAGGCAGGCUUCGGUGGUGCGAUAGCGCCAACGUCCUCAACCUCCAAUGCAUGCCACCACAUGAUGAUGCCUGAAGAGCCUUGGUUUAUUG [C62U C97G U132A]
-3.9

For GACCAAUCUGGCCUCAUAGCUCGAGAACAUCUUCGGAUGCAGAGGAGGCUGGCUUCGGUGGCGCGAUAGCUCCAACGUCCUCAAACCCCAAUGCAUCCCACCACAUGAUGAUGCCUGAAGAGCCUUGGUUUUUUG [C11G G17U A50U G71U C85A U87C] then?
-5.37

Consider next the variant GACCAAUCUGCCCUCAGAGGUCGAGAACAUCUUCGGAUGCAGAGGAGGCAGGCUUCCGUGGCGCGAUAGCGCCAACGUCCUCAACCUCCAAUGCAUCCCACCACAUGAUGAUGCCUGAAGAGCCUUGGUUUUUUG [C20G G57C] in the same way.
-4.41
